Kindly supply the reported concentration in the basolateral compartment after 48 h values for the records listed here.
Tested on: PBCEC monolayer
Type: in vitro ADME, porcine
conditionNotes: 200 nM in both compartments, 100 µM probenecid from 1 h before, n = 3
Kindly provide the numeric value in nM only, without the unit symbol.

Reported concentration in the basolateral compartment after 48 h for C[C@@H]1Cc2c(Cl)cc(C(=O)N[C@@H](Cc3ccccc3)C(=O)O)c(O)c2C(=O)O1 was 224

Reported concentration in the basolateral compartment after 48 h for Cc1c(O)c(C(=O)O)c(O)c2c1[C@H](C)[C@@H](C)OC2=O [DHCIT, dihydrocitrinone] was 178

Reported concentration in the basolateral compartment after 48 h for CC1=C2C(=CO[C@H](C)[C@H]2C)C(O)=C(C(=O)O)C1=O was 180

Reported concentration in the basolateral compartment after 48 h for C[C@@H]1Cc2c(Cl)cc(C(=O)O)c(O)c2C(=O)O1 was 187

The origin of these recorded values is paper PMC8147254.
